The reported measurements were obtained from patent US8946384.

TESTED_TARGET: T1, recombinant type-2 Shiga toxin (Stx2) holotoxin (E. coli EHEC O157: H7), P09385
T1 chain 1: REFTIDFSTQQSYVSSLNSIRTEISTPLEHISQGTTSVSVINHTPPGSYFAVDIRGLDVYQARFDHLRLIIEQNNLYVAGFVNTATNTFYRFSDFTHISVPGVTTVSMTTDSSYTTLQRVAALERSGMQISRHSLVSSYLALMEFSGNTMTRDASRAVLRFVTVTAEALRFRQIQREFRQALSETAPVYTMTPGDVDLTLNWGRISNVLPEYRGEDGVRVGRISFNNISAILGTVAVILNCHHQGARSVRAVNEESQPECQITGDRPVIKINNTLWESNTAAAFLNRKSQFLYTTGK
T1 chain 2: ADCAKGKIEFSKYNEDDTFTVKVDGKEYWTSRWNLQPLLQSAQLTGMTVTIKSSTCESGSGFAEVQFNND
Kindly state Kd for each of the entries shown.
Please answer in the form of a number followed by its unit of measurement.

// query I am curious: what Kd value has been reported for WAPWYSFTSYHL (modifications not checked) [polypeptide WA8] ?
// result 24.8 µM

// query Entry under review: TFNMWLPTFNQW (modifications not checked) [polypeptide TF1] . Reported Kd?
// result 1.25 µM
